assayedTarget: T1, full-length human Nectin-4 on cells (human, UniProt Q96NY8 32-510)
T1 construct: the cell is named under assay; also called CHO-Nectin-4 cells; Nectin-4-CHO
T1 sequence: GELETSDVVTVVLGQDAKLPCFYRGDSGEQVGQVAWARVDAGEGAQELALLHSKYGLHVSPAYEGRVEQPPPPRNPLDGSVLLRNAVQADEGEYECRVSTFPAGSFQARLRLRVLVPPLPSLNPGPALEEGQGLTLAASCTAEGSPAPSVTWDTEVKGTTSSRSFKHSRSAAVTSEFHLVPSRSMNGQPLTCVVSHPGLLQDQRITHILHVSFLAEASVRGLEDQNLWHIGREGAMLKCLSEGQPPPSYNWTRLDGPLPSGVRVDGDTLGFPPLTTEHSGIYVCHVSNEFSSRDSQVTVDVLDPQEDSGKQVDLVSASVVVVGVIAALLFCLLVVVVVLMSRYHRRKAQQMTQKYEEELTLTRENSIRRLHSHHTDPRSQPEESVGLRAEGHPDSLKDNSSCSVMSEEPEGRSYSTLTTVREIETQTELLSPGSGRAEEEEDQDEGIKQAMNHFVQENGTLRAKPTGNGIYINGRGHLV
protocolDescription: flow cytometry competition on CHO-Nectin-4 cells; competitor biotinylated human TIGIT
Parameter: EC50. Scope: all listed entries.
measuredAttribute: EC50 (nM)

[[record]]
binder = "N4_mAb 5 (antibody, human IgG1, V domains shown, Tested as chimera (human IgG1/kappa constants); not shown: human IgG1 constant region (Uniprot P01857); human Kappa light chain constant region (UniProt P01834)) VH: EVQLQQSGPDLVKPGASVKISCKASGYSFTGHYMHWVKQSHGKSLEWIGRVNPNNGGSSYNQKFKDKAILTVDKSSTTAYMELRSLTSEDSAVYYCARDPLGGSYGFAYWGQGTLVTVSA VL: DIVLTQSPASLAVSLGQRATISCRASQSVTTSSYSYMHWYQQKPGQPPKLLIKYASNLESGVPARFSGSGSGTDFTLNIHPVEEEDTATYYCQHSWEIPYTFGGGTKLEMK"
measuredattribute = "EC50"
assayvalue = 3.11

[[record]]
binder = "N4_mAb 2 (antibody, human IgG1, V domains shown, Tested as chimera (human IgG1/kappa constants); not shown: human IgG1 constant region (Uniprot P01857); human Kappa light chain constant region (UniProt P01834)) VH: QVQLKQSGPNLVQPSQSLSITCTVSGFSLTTYGAHWVRQSPGKGLEWLGVIWRGGSTDYNAAFMSRLSITKDNSKSQVFFKMNSLQADDTAIYYCAKIGYDGYAMDNWGQGTSVTVSS VL: DFQVTQSPASLSASVGETVTITCRTSENIHNYLAWYQQKQGKSPQLLVYNAKTLADGVPSRFSGSGSGTQYSLKINSLQPEDFGTYYCQHFWSSPWTFGGGTKLEIK"
measuredattribute = "EC50"
assayvalue = 3.04

[[record]]
binder = "N4_mAb 3 (antibody, human IgG1, V domains shown, Tested as chimera (human IgG1/kappa constants); not shown: human IgG1 constant region (Uniprot P01857); human Kappa light chain constant region (UniProt P01834)) VH: EVQLQQSGAELVKPGASVKLSCTVSGFNIKDTYMHWVKQRPEQGLEWIGRIDPANGNTKYDPKFQGKATIIADKASNTAYLQLSSLTSEDAAVYYCAHYYGSSYFAMDCWGQGTSVTVSS VL: DIVMTQSHKFMSTSVGDRVSITCKASQDVSTAVAWYQQKPGQSPKLLIYWASTRHTGVPDRFTGSGSGTDYTLTISSVQTEDLALYYCQQHYSTPLTFGAGTKLELK"
measuredattribute = "EC50"
assayvalue = 0.94

